# protocol-description: in vitro
# assay-context: rat, CC50 (μM)
Counter-ions that a name gives are not always drawn.
assay-endpoint: CC50 at 48 h (µM)
Reply numerically in µM, unit not repeated.

Use these answered entries as a reference point.
COc1cc(/C=C/C(=O)Nc2ccccc2-n2cnc(C)n2)ccc1C1=CCNCC1 [Example 140, trifluoroacetic acid salt]: 36.1
COc1cc(C2CC2C(=O)Nc2ccc(F)cc2)ccc1C1=CCNCC1 (centres unmarked) [Example 143, trifluoroacetic acid salt]: 7.2
COc1cc(C2CC2C(=O)Nc2ccccc2-n2cnc(C)n2)ccc1C1=CCNCC1 (centres unmarked) [Example 144, trifluoroacetic acid salt]: 81

Let's switch to this molecule now.
Prompt: Which CC50 at 48 h is reported for this molecule? COc1cc(/C=C/C(=O)Nc2ccccc2C(=O)O)ccc1C1=CCNCC1 [Example 98]
Response: 289

Data provenance is patent US11603349B2.
